test-summary: Cmax in Sprague-Dawley rat at 5.0 mg/kg, ig measured for 15 min to 72 hrs by LC-MS/MS analysis
Assay type: ADME, organism-based
Parameters: dose 5 mg/kg, route intragastric
assay-context: in vivo, po
Catalogue of Cmax values
State just the number; it will be interpreted in ng/mL.

Quick note, Cmax for Cn1cc(-c2ccc(F)cc2)c(=O)c2c(Nc3ccc(Oc4ccnc(NC(=O)C5CC5)c4)c(F)c3)nccc21 landed at 7800

Quick note, Cmax for O=C(Nc1cc(Oc2ccc(Nc3nccc4[nH]cc(-c5ccc(F)cc5)c(=O)c34)cc2F)ccn1)C1CC1 landed at 2700

----------
test-summary: Half life in Sprague-Dawley rat at 2.5 mg/kg, iv measured for 5 min to 72 hrs by LC-MS/MS analysis
Assay type: ADME, organism-based
assay-context: in vivo
metric-name: half-life
Kindly report the value followed by its unit.

Quick note, half-life for Nc1nccc(Oc2ccc(Nc3nccc4[nH]cc(-c5ccc(F)cc5)c(=O)c34)cc2F)c1Cl landed at 30 min

Attribution: ChEMBL document CHEMBL4373740
